The values you see were collected from patent US5756763A.

As a worked illustration, we turn to log10 of IC50 data collected for prolyl endopeptidase (Sus scrofa, UniProt P23687).
// units: nM (pre-log); metric: IC50; scale: log10

[
  {
    "compound": "O=C(NC1CCCCC1)C(=O)C1CCCN1C(=O)c1ccc2ccccc2c1 (centres unmarked)",
    "tested_on": "prolyl endopeptidase (Sus scrofa, UniProt P23687)",
    "recorded_number": 1.34
  },
  {
    "compound": "O=C(NC1CCCCC1)C(=O)C1CCCN1C(=O)C(Cc1ccccc1)NC(=O)c1ccc2ccccc2c1 (centres unmarked)",
    "tested_on": "prolyl endopeptidase (Sus scrofa, UniProt P23687)",
    "recorded_number": 0.51
  },
  {
    "compound": "O=C(NC1CCCCC1)C(=O)C1CCCN1C(=O)C=Cc1ccccc1 (centres unmarked)",
    "tested_on": "prolyl endopeptidase (Sus scrofa, UniProt P23687)",
    "recorded_number": 1.68
  },
  {
    "compound": "O=C(NC1CCCC1)C(=O)C1CCCN1C(=O)C(Cc1ccccc1)NC(=O)c1cccc(Oc2ccccc2)c1 (centres unmarked)",
    "tested_on": "prolyl endopeptidase (Sus scrofa, UniProt P23687)",
    "recorded_number": 0.17
  }
]

Given the entry O=C(NC1CCCCC1)C(=O)C1CCCN1C(=O)CN(Cc1ccccc1)C(=O)c1ccncc1 (centres unmarked) , what log10 of IC50 was observed with prolyl endopeptidase (Sus scrofa, UniProt P23687)?
0.94

Please answer likewise for O=C(NC1CCCCC1)C(=O)C1CCCN1C(=O)c1ccc(CN2CCCCC2)cc1 (centres unmarked)
1.91

Please answer likewise for CC(C)(C)OC(=O)NC(Cc1ccccc1)C(=O)N1CCCC1C(=O)C(=O)NC1CCCCC1 (centres unmarked)
0.50

###

biological target: prolyl endopeptidase (Sus scrofa)
Below: a set of entries, each annotated with reported IC50.
Unit nM implied. Number only.

[
  {
    "compound": "O=C(NC1CCCCC1)C(=O)C1CCCN1C(=O)C(Cc1ccccc1)NC(=O)c1ccccn1 (centres unmarked) [Example 26]",
    "tested_on": "prolyl endopeptidase (Sus scrofa)",
    "IC50 / nM": 1.78
  }
]

What value of IC50 has been recorded for this entry: O=C(NC1CCCCC1)C(=O)C1CCCN1C(=O)C(Cc1ccccc1)NC(=O)c1cccnc1 (centres unmarked) [Example 53]
4.2

Please answer likewise for O=C(NC1CCCCC1)C(=O)C1CCCN1C(=O)C(CC1CCCCC1)NC(=O)c1ccc2ccccc2n1 (centres unmarked) [Example 124]
3.75

Please answer likewise for O=C(NCCc1ccccn1)C(=O)C1CCCN1C(=O)c1ccc(Cl)cc1 (centres unmarked) [Example 97]
90.7

Please answer likewise for O=C(NC1CCCCC1)C(=O)C1CCCN1C(=O)c1ccc(CN2CCOCC2)cc1 (centres unmarked) [Example 84]
72.5

Please answer likewise for O=C(NC1CCCCC1)C(=O)C1CCCN1C(=O)C(Cc1ccccc1)NC(=O)c1ccccc1 (centres unmarked) [Example 43]
1.89

Please answer likewise for O=C(NC1CCCCC1)C(=O)C1CCCN1C(=O)C1CCCN1C(=O)CSc1ccncc1 (centres unmarked) [Example 55]
1.69

Please answer likewise for CC(C)C(NC(=O)OCc1ccccc1)C(=O)N1CCCC1C(=O)C(=O)NC1CCCCC1 (centres unmarked) [Example 4]
1.09

Please answer likewise for O=C(CSc1ccncc1)NC(Cc1ccccc1)C(=O)N1CCCC1C(=O)C(=O)NC1CCCCC1 (centres unmarked) [Example 51]
2.68

###

biological target: prolyl endopeptidase (Sus scrofa)
Below: a set of entries, each annotated with reported IC50.
Unit nM implied. Number only.

Reference set, count: 4
[
  {
    "molecule": "CC(C)C(NC(=O)c1ccc2ccccc2n1)C(=O)N1CCCC1C(=O)C(=O)NC1CCCCC1 (stereo not shown) [Example 9]",
    "tested_on": "prolyl endopeptidase (Sus scrofa)",
    "IC50, nM": 1.34
  },
  {
    "molecule": "CC(C)(C)OC(=O)N1c2ccccc2CC1C(=O)N1CCCC1C(=O)C(=O)NC1CCCCC1 (stereo not shown) [Example 126]",
    "tested_on": "prolyl endopeptidase (Sus scrofa)",
    "IC50, nM": 1.7
  },
  {
    "molecule": "O=C(C=Cc1ccco1)NC(Cc1ccccc1)C(=O)N1CCCC1C(=O)C(=O)NC1CCCCC1 (stereo not shown) [Example 31]",
    "tested_on": "prolyl endopeptidase (Sus scrofa)",
    "IC50, nM": 6.31
  },
  {
    "molecule": "O=C[C@@H]1CCCN1C(=O)[C@H](Cc1ccccc1)NC(=O)c1cccc(Oc2ccccc2)c1 [Reference Example 4, reference compound]",
    "tested_on": "prolyl endopeptidase (Sus scrofa)",
    "IC50, nM": 249
  }
]

What value of IC50 has been recorded for this entry: O=C(Cc1ccccn1)NC(Cc1ccccc1)C(=O)N1CCCC1C(=O)C(=O)NC1CCCCC1 (stereo not shown) [Example 24]
2.24

###

As a worked illustration, we turn to pIC50 data collected for prolyl endopeptidase (Sus scrofa, UniProt P23687).
Please express pIC50 as -log10 of the molar concentration.

[
  {
    "compound": "O=C(NC1CCCCC1)C(=O)C1CCCN1C(=O)C=Cc1ccc(Cl)cc1 (stereo not shown)",
    "recorded_number": 6.96
  }
]

Given the entry O=C(CSc1ccccc1)NC(Cc1ccccc1)C(=O)N1CCCC1C(=O)C(=O)NC1CCCCC1 (stereo not shown) , what pIC50 was observed with prolyl endopeptidase (Sus scrofa, UniProt P23687)?
8.81

Please answer likewise for O=C(NC1CCCCCC1)C(=O)C1CCCN1C(=O)c1ccc2ccccc2c1 (stereo not shown)
7.63

###

target: prolyl endopeptidase (Sus scrofa, UniProt P23687)
Sequence (P23687 whole entry): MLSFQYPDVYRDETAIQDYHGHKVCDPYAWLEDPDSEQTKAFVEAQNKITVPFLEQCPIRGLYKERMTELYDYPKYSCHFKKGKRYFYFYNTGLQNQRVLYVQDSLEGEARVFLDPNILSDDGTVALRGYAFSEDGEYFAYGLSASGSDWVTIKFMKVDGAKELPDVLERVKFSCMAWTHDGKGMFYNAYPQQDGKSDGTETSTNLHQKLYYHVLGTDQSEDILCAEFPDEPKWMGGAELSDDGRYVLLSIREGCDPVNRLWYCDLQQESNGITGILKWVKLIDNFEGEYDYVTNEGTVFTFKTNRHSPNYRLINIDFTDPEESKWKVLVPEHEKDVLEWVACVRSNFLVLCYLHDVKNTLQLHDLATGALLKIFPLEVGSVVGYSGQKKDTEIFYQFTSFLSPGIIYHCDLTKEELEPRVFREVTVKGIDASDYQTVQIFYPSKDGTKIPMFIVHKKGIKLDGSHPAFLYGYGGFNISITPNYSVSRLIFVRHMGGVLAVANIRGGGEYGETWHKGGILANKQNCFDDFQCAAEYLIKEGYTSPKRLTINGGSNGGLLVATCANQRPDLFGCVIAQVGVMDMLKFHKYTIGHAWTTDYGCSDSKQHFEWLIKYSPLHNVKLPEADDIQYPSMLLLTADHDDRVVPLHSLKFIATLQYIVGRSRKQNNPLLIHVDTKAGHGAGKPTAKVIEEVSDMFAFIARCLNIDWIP
pIC50: −log10 of the molar value.
Decision: pIC50 >= 8 yields Condition met, all other cases yield Condition not met.

[
  {
    "compound": "O=C(NC1CCCCC1)C(=O)C1CCCN1C(=O)c1ccccn1 (centres unmarked) [Example 74]",
    "cat": "Condition not met"
  },
  {
    "compound": "O=C(NC1CCCCC1)C(=O)C1CCCN1C(=O)C=Cc1cccnc1 (centres unmarked) [Example 72]",
    "cat": "Condition not met"
  },
  {
    "compound": "CC(C)C(NC(=O)c1cccc(Oc2ccccc2)c1)C(=O)N1CCCC1C(=O)C(=O)NC1CCCCC1 (centres unmarked) [Example 7]",
    "cat": "Condition met"
  },
  {
    "compound": "O=C(NC1CCCCC1)C(=O)C1CCCN1C(=O)c1ccc(Cn2ccnc2)cc1 (centres unmarked) [Example 88]",
    "cat": "Condition not met"
  },
  {
    "compound": "O=C(NC1CCCCC1)C(=O)C1CCCN1C(=O)C(Cc1ccccc1)NC(=O)c1cccc(Oc2ccccc2)c1 (centres unmarked) [Example 28]",
    "cat": "Condition met"
  }
]

Now consider the entry below.
Check if pIC50 >= 8 (inclusive). Item: O=C(NC1CC1)C(=O)C1CCCN1C(=O)C(Cc1ccccc1)NC(=O)c1cccc(Oc2ccccc2)c1 (centres unmarked) [Example 108]
Condition met

###

Below: a set of entries, each annotated with reported pIC50.
biological target: prolyl endopeptidase (Sus scrofa)
Please express pIC50 as -log10 of the molar concentration.

Reference set, count: 4
[
  {
    "molecule": "O=C(NC1CCCCC1)C(=O)C1CCCN1C(=O)C(Cc1ccccc1)NC(=O)c1cccs1 (centres unmarked) [Example 18]",
    "tested_on": "prolyl endopeptidase (Sus scrofa)",
    "pIC50": 8.64
  },
  {
    "molecule": "O=C(NC(Cc1ccccc1)C(=O)N1CCCC1C(=O)C(=O)NC1CCCCC1)OCc1ccccc1 (centres unmarked) [Example 45]",
    "tested_on": "prolyl endopeptidase (Sus scrofa)",
    "pIC50": 8.62
  },
  {
    "molecule": "O=C(NCCN1CCOCC1)C(=O)C1CCCN1C(=O)c1ccc(Cl)cc1 (centres unmarked) [Example 95]",
    "tested_on": "prolyl endopeptidase (Sus scrofa)",
    "pIC50": 6.78
  },
  {
    "molecule": "O=C(NC1CCCCCC1)C(=O)C1CCCN1C(=O)C(Cc1ccccc1)NC(=O)c1cccc(Oc2ccccc2)c1 (centres unmarked) [Example 41]",
    "tested_on": "prolyl endopeptidase (Sus scrofa)",
    "pIC50": 8.86
  }
]

What value of pIC50 has been recorded for this entry: O=C(COc1ccccc1)NC(Cc1ccccc1)C(=O)N1CCCC1C(=O)C(=O)NC1CCCCC1 (centres unmarked) [Example 20]
8.80

###

Below: a set of entries, each annotated with reported IC50.
target: prolyl endopeptidase (Sus scrofa); construct: swine kidney-derived prolyl endopeptidase; from tissue; host or cells: swine kidney; test: Enzyme inhibitory action on swine kidney-derived prolyl endopeptidase (Z-Gly-Pro-β-naphthylamide substrate); format: biochemical; conditions: swine kidney prolyl endopeptidase, 0.1 mM substrate, 37° C., 30 minutes, pH 7.5
Unit nM implied. Number only.

Reference set, count: 5
[
  {
    "molecule": "O=C(NC1CCCCC1)C(=O)C1CCCN1C(=O)[C@H](Cc1ccccc1)NC(=O)c1ccc(CN2CCOCC2)cc1 (stereo partly shown)",
    "units_symbol": "nM",
    "recorded_number": 9.4
  },
  {
    "molecule": "O=C(CCC1CCCCC1)NC(Cc1ccccc1)C(=O)N1CCCC1C(=O)C(=O)NC1CCCCC1 (stereo not shown)",
    "units_symbol": "nM",
    "recorded_number": 0.981
  },
  {
    "molecule": "O=C(NC1CCCCCCC1)C(=O)C1CCCN1C(=O)C(Cc1ccccc1)NC(=O)c1cccc(Oc2ccccc2)c1 (stereo not shown)",
    "units_symbol": "nM",
    "recorded_number": 1.59
  },
  {
    "molecule": "O=C(NC1CCCCC1)C(=O)C1CCCN1C(=O)C(Cc1ccccc1)NC(=O)c1ccc2ccccc2n1 (stereo not shown)",
    "units_symbol": "nM",
    "recorded_number": 2.09
  },
  {
    "molecule": "O=C(NCc1nc2ccccc2[nH]1)C(=O)C1CCCN1C(=O)c1ccc(Cl)cc1 (stereo not shown)",
    "units_symbol": "nM",
    "recorded_number": 134
  }
]

Given the entry O=C(NC1CCCCC1)C(=O)C1CCCN1C(=O)c1ccc2ccccc2n1 (stereo not shown) , what IC50 was observed with prolyl endopeptidase (Sus scrofa)?
26.4

Please answer likewise for CC(=O)NC(Cc1ccccc1)C(=O)N1CCCC1C(=O)C(=O)NC1CCCCC1 (stereo not shown)
2.03
